# System: epimastigote stage of T. cruzi
# assayOverview: Antiparasitic activity, alamarBlue, epimastigotes
# Format: cell-based, Trypanosoma cruzi
# conditionContext: epimastigote stage of T. cruzi (Y strain), 72 h, alamarBlue; mean ± SD; NA: not active
reportedMetric: IC50 (µM)

[[record]]
molecule = "CCOP(=O)(/C=C/C#N)OCC [Compound Q18, (E)-Diethyl 2-cyanovinylphosphonate]"
endpointunit = "µM"
measurednumber = 14.8

[[record]]
molecule = "N#CC=CC(=O)N1C(=O)OC[C@H]1c1ccccc1"
endpointunit = "µM"
measurednumber = 20.4


====

# Tested on: epimastigotes of Trypanosoma cruzi
# assayOverview: ATP level analysis (CellTiter-Glo)
# Type: cell-based
# conditionContext: 24 h with the IC90, CellTiter-Glo, Figure 3
reportedMetric: Percentage of ATP level relative to untreated control (%)

[[record]]
molecule = "N#C/C=C/C(=O)Oc1ccccc1 [Compound Q7, (E)-phenyl 3-cyanoacrylate]"
comparisonsign = "="
measurednumber = 32.68

[[record]]
molecule = "CN(C(=O)/C=C/C#N)c1ccccc1 [Compound Q29, (E)-3-Cyano-N-methyl-N-phenylacrylamide]"
comparisonsign = "<"
measurednumber = 1

[[record]]
molecule = "O=C(Cn1ccnc1[N+](=O)[O-])NCc1ccccc1 [BENZ, benznidazole, reference compound]"
comparisonsign = "="
measurednumber = 18.26

[[record]]
molecule = "CON(C)C(=O)/C=C/C#N [Compound Q27, (E)-3-Cyano-N-methoxy-N-methylacrylamide]"
comparisonsign = "<"
measurednumber = 1

[[record]]
molecule = "N#C/C=C/P(=O)(c1ccccc1)c1ccccc1 [Compound Q19, (E)-3-(diphenylphosphoryl)acrylonitrile]"
comparisonsign = "="
measurednumber = 30.78


====

# System: epimastigote stage of T. cruzi
# assayOverview: Antiparasitic activity, alamarBlue, epimastigotes
# Format: cell-based, Trypanosoma cruzi
# conditionContext: Trypanosoma cruzi, 72 h, epimastigote stage of T. cruzi (Y strain), 72 h, alamarBlue; mean ± SD; NA: not active
IC50 overview
reportedMetric: IC50 (µM)

[[record]]
molecule = "CCOC(=O)/C=C/C#N [Compound Q3, (E)-Ethyl 3-cyanoacrylate]"
reportedmetric = "IC50"
endpointunit = "µM"
measurednumber = 46.4

[[record]]
molecule = "CCCCCC(=O)/C=C/C#N [Compound Q10, (E)-4-Oxonon-2-enenitrile]"
reportedmetric = "IC50"
endpointunit = "µM"
measurednumber = 11

[[record]]
molecule = "N#C/C=C\\P(=O)(c1ccccc1)c1ccccc1 [Compound Q20, (Z)-3-(diphenylphosphoryl)acrylonitrile]"
reportedmetric = "IC50"
endpointunit = "µM"
measurednumber = 49.1

[[record]]
molecule = "COC(=O)/C=C\\C#N [Compound Q2, (Z)-Methyl 3-cyanoacrylate]"
reportedmetric = "IC50"
endpointunit = "µM"
measurednumber = 25.9

[[record]]
molecule = "N#C/C=C/C(=O)CCc1ccccc1 [Compound Q17, (E)-4-Oxo-6-phenylhex-2-enenitrile]"
reportedmetric = "IC50"
endpointunit = "µM"
measurednumber = 14.1

[[record]]
molecule = "COC(=O)/C=C/C#N [Compound Q1, (E)-Methyl 3-cyanoacrylate]"
reportedmetric = "IC50"
endpointunit = "µM"
measurednumber = 17.4

[[record]]
molecule = "N#C/C=C\\C(=O)c1cccs1"
reportedmetric = "IC50"
endpointunit = "µM"
measurednumber = 26.5

[[record]]
molecule = "N#C/C=C/C(=O)c1cccs1"
reportedmetric = "IC50"
endpointunit = "µM"
measurednumber = 25

[[record]]
molecule = "Cc1ccc(S(=O)(=O)/C=C/C#N)cc1 [Compound Q21, (E)-3-Tosylacrylonitrile]"
reportedmetric = "IC50"
endpointunit = "µM"
measurednumber = 3.86

[[record]]
molecule = "N#C/C=C/C(=O)c1ccccc1 [Compound Q11, (E)-4-Oxo-4-phenylbut-2-enenitrile]"
reportedmetric = "IC50"
endpointunit = "µM"
measurednumber = 5.53

[[record]]
molecule = "CN(C(=O)/C=C/C#N)c1ccccc1 [Compound Q29, (E)-3-Cyano-N-methyl-N-phenylacrylamide]"
reportedmetric = "IC50"
endpointunit = "µM"
measurednumber = 138

[[record]]
molecule = "N#C/C=C\\C(=O)Oc1ccccc1 [Compound Q8, (Z)-phenyl 3-cyanoacrylate]"
reportedmetric = "IC50"
endpointunit = "µM"
measurednumber = 4.36

[[record]]
molecule = "N#C/C=C/C(=O)c1ccco1 [Compound Q15, (E)-4-(Furan-2-yl)-4-oxobut-2-enenitrile]"
reportedmetric = "IC50"
endpointunit = "µM"
measurednumber = 32.9

[[record]]
molecule = "N#C/C=C/C(=O)N1CCCC1"
reportedmetric = "IC50"
endpointunit = "µM"
measurednumber = 154

[[record]]
molecule = "CCCCCCCCOC(=O)/C=C\\C#N [Compound Q6, (Z)-Octyl 3-cyanoacrylate]"
reportedmetric = "IC50"
endpointunit = "µM"
measurednumber = 51.9

[[record]]
molecule = "N#C/C=C/C(=O)C1CCCCC1 [Compound Q16, (E)-4-Cyclohexyl-4-oxobut-2-enenitrile]"
reportedmetric = "IC50"
endpointunit = "µM"
measurednumber = 7.65

[[record]]
molecule = "N#C/C=C\\C(=O)c1ccccc1 [Compound Q12, (Z)-4-Oxo-4-phenylbut-2-enenitrile]"
reportedmetric = "IC50"
endpointunit = "µM"
measurednumber = 20.9

[[record]]
molecule = "CCOC(=O)/C=C\\C#N [Compound Q4, (Z)-Ethyl 3-cyanoacrylate]"
reportedmetric = "IC50"
endpointunit = "µM"
measurednumber = 47.3


====

# assayOverview: Cytotoxicity, alamarBlue, murine macrophages
# Format: cell-based
# conditionContext: mouse, J774A.1 murine macrophage cell line, J774A.1 murine macrophages, mean ± SD
reportedMetric: CC50 at 24 h (µM)

[[record]]
compound = "N#C/C=C/P(=O)(c1ccccc1)c1ccccc1 [Compound Q19, (E)-3-(diphenylphosphoryl)acrylonitrile]"
reportedmetric = "CC50 at 24 h"
measurednumber = 22.2

[[record]]
compound = "N#C/C=C/C(=O)C1CCCCC1 [Compound Q16, (E)-4-Cyclohexyl-4-oxobut-2-enenitrile]"
reportedmetric = "CC50 at 24 h"
measurednumber = 4.35

[[record]]
compound = "CON(C)C(=O)/C=C\\C#N [Compound Q28, (Z)-3-Cyano-N-methoxy-N-methylacrylamide]"
reportedmetric = "CC50 at 24 h"
measurednumber = 210

[[record]]
compound = "CCCCCCCCOC(=O)/C=C\\C#N [Compound Q6, (Z)-Octyl 3-cyanoacrylate]"
reportedmetric = "CC50 at 24 h"
measurednumber = 28.8

[[record]]
compound = "COC(=O)/C=C/C#N [Compound Q1, (E)-Methyl 3-cyanoacrylate]"
reportedmetric = "CC50 at 24 h"
measurednumber = 87.4

[[record]]
compound = "N#C/C=C/C(=O)c1cccs1 [Compound Q13]"
reportedmetric = "CC50 at 24 h"
measurednumber = 8.52

[[record]]
compound = "N#C/C=C/C(=O)c1ccco1 [Compound Q15, (E)-4-(Furan-2-yl)-4-oxobut-2-enenitrile]"
reportedmetric = "CC50 at 24 h"
measurednumber = 6.66

[[record]]
compound = "N#C/C=C/C(=O)N1CCCC1 [Compound Q25]"
reportedmetric = "CC50 at 24 h"
measurednumber = 374


====

# Tested on: J774A.1 murine macrophage cell line
# assayOverview: Cytotoxicity, alamarBlue, murine macrophages
# Assay type: cell-based
# conditionContext: J774A.1 murine macrophages, 24 h, mean ± SD
Reported values of CC50 for individual entries
reportedMetric: CC50 (µM)

[[record]]
compound = "N#CC=CC(=O)N1C(=O)OC[C@H]1c1ccccc1 [Compound Q31]"
reportedmetric = "CC50"
measurednumber = 10.4

[[record]]
compound = "N#CC=CC(=O)N1C(=O)OC[C@H]1c1ccccc1 [Compound Q32]"
reportedmetric = "CC50"
measurednumber = 2.89

